tested on: HCT-116; assay: Antiproliferative activity against human HCT116 cells after 72 hrs by MTT assay; assay type: functional; settings: HCT-116, 72 h

- molecule: "Cl.NC1=NC2(CCCC2)N(OCCCCOc2cccc(C(=O)/C=C/c3ccccc3)c2)C(N)=N1"
  GI50 [nM]: 116
- molecule: "CC1(C)N=C(N)N=C(N)N1OCCCOc1cccc(C(=O)/C=C/c2ccccc2)c1"
  GI50 [nM]: 11
- molecule: "CC1(C)N=C(N)N=C(N)N1OCCOc1ccc(C(=O)/C=C/c2ccccc2)cc1"
  GI50 [nM]: 572
- molecule: "CC1(C)N=C(N)N=C(N)N1OCCCOc1cccc(/C=C/C(=O)c2ccccc2)c1"
  GI50 [nM]: 11
- molecule: "CC1(C)N=C(N)N=C(N)N1OCCCCOc1cccc(/C=C/C(=O)c2ccccc2)c1"
  GI50 [nM]: 34
- molecule: "CC1(C)N=C(N)N=C(N)N1OCCCOc1ccc(/C=C/C(=O)c2ccccc2)cc1"
  GI50 [nM]: 35
- molecule: "CN(Cc1cnc2nc(N)nc(N)c2n1)c1ccc(C(=O)N[C@@H](CCC(=O)O)C(=O)O)cc1 [METHOTREXATE]"
  GI50 [nM]: 15
- molecule: "NC1=NC2(CCCC2)N(OCCCOc2ccccc2)C(N)=N1"
  GI50 [nM]: 21
- molecule: "CC1(C)N=C(N)N=C(N)N1OCCCOc1ccccc1"
  GI50 [nM]: 36
- molecule: "CC1(C)N=C(N)N=C(N)N1OCCCCOc1cccc(C(=O)/C=C/c2ccccc2)c1"
  GI50 [nM]: 51

====

molecular target: Dihydrofolate reductase (Homo sapiens, UniProt P00374); experiment: Inhibition of recombinant human DHFR assessed as reduction in conversion of DHF to THF measured every 30 secs for 6 mins by UV-Vis spectrophotometric method
Sequence (P00374 whole entry): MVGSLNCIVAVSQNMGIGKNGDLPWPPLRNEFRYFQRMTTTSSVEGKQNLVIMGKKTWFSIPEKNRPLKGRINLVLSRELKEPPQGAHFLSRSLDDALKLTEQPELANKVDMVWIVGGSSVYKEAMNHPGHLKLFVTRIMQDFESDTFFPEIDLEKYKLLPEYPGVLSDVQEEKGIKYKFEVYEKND

- lineNotation: "CC1(C)N=C(N)N=C(N)N1OCCCOc1ccc(/C=C/C(=O)c2ccccc2)cc1"
  IC50: "6.4 nM"
- lineNotation: "CC1(C)N=C(N)N=C(N)N1OCCCCOc1ccc(C(=O)/C=C/c2ccccc2)cc1"
  IC50: "3.4 nM"
- lineNotation: "CC1(C)N=C(N)N=C(N)N1OCCCCOc1cccc(C(=O)/C=C/c2ccccc2)c1"
  IC50: "4.2 nM"
- lineNotation: "CC1(C)N=C(N)N=C(N)N1OCCCOc1cccc(/C=C/C(=O)c2ccccc2)c1"
  IC50: "3.2 nM"
- lineNotation: "Cl.NC1=NC2(CCCC2)N(OCCCCOc2cccc(C(=O)/C=C/c3ccccc3)c2)C(N)=N1"
  IC50: "2.6 nM"
- lineNotation: "NC1=NC2(CCCC2)N(OCCOc2cccc(C(=O)/C=C/c3ccccc3)c2)C(N)=N1"
  IC50: "13.1 nM"
- lineNotation: "CC1(C)N=C(N)N=C(N)N1OCCCCOc1ccc(/C=C/C(=O)c2ccccc2)cc1"
  IC50: "4 nM"
- lineNotation: "CC1(C)N=C(N)N=C(N)N1OCCCOc1cccc(C(=O)/C=C/c2ccccc2)c1"
  IC50: "9 nM"

====

Molecular target: Thioredoxin reductase 1, cytoplasmic (Homo sapiens)
Sequence (whole entry): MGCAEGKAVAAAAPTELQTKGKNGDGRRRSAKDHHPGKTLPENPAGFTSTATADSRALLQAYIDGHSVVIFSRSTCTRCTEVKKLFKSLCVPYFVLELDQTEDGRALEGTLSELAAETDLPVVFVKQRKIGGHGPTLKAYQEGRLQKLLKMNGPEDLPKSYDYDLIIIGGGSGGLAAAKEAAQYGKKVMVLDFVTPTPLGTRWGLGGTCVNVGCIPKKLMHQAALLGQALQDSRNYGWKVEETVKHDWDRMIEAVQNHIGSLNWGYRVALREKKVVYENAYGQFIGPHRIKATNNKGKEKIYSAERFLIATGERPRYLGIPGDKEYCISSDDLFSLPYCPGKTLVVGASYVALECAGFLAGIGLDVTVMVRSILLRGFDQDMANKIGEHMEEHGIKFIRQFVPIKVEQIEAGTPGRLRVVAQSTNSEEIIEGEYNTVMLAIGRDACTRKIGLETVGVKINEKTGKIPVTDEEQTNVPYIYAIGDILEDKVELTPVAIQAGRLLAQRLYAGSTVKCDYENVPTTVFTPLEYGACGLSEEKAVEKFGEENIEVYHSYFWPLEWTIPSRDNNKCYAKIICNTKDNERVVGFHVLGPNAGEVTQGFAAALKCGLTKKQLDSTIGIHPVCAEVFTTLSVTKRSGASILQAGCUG
Assay: Inhibition of thioredoxin reductase in human HCT116 cell lysate using thioredoxin as substrate at 0.001 to 1 uM after 16 hrs by end point insulin assay method
Calls of active or inactive are those of the source. The calls are words filed in the database; no cut-off is given here.
measuredProperty: inhibition

- lineNotation: "CC1(C)N=C(N)N=C(N)N1OCCCOc1cccc(C(=O)/C=C/c2ccccc2)c1"
  measuredProperty: "inhibition"
  recordedResult: "inactive"
- lineNotation: "NC1=NC2(CCCC2)N(OCCCOc2ccccc2)C(N)=N1"
  measuredProperty: "inhibition"
  recordedResult: "inactive"
- lineNotation: "Cl.NC1=NC2(CCCC2)N(OCCCCOc2cccc(C(=O)/C=C/c3ccccc3)c2)C(N)=N1"
  measuredProperty: "inhibition"
  recordedResult: "inactive"
- lineNotation: "CC1(C)N=C(N)N=C(N)N1OCCCOc1ccccc1"
  measuredProperty: "inhibition"
  recordedResult: "inactive"
- lineNotation: "CC1(C)N=C(N)N=C(N)N1OCCCCOc1cccc(C(=O)/C=C/c2ccccc2)c1"
  measuredProperty: "inhibition"
  recordedResult: "inactive"
- lineNotation: "O=C(/C=C/c1ccccc1)c1ccccc1"
  measuredProperty: "inhibition"
  recordedResult: "inactive"
- lineNotation: "Cl.NC1=NC2(CCCC2)N(OCCCOc2cccc(C(=O)/C=C/c3ccccc3)c2)C(N)=N1"
  measuredProperty: "inhibition"
  recordedResult: "inactive"

====

tested on: MCF7; test: Antiproliferative activity against human MCF7 cells after 72 hrs by MTT assay; assay type: functional; details: MCF7, 72 h
With a cut-off of 20 µM, any LC50 (concentration killing 50% of cells present at T0) strictly below it is called TRUE; any LC50 (concentration killing 50% of cells present at T0) meeting it or above is called FALSE.

- lineNotation: "CC1(C)N=C(N)N=C(N)N1OCCCCOc1ccc(/C=C/C(=O)c2ccccc2)cc1"
  studyTarget: "MCF7"
  assignedLabel: "TRUE"
- lineNotation: "NC1=NC2(CCCC2)N(OCCOc2cccc(C(=O)/C=C/c3ccccc3)c2)C(N)=N1"
  studyTarget: "MCF7"
  assignedLabel: "TRUE"
- lineNotation: "CC1(C)N=C(N)N=C(N)N1OCCCOc1ccc(C(=O)/C=C/c2ccccc2)cc1"
  studyTarget: "MCF7"
  assignedLabel: "FALSE"
- lineNotation: "Cl.NC1=NC2(CCCC2)N(OCCCOc2cccc(C(=O)/C=C/c3ccccc3)c2)C(N)=N1"
  studyTarget: "MCF7"
  assignedLabel: "TRUE"
- lineNotation: "CC1(C)N=C(N)N=C(N)N1OCCCCOc1cccc(C(=O)/C=C/c2ccccc2)c1"
  studyTarget: "MCF7"
  assignedLabel: "TRUE"
- lineNotation: "CC1(C)N=C(N)N=C(N)N1OCCCOc1ccc(/C=C/C(=O)c2ccccc2)cc1"
  studyTarget: "MCF7"
  assignedLabel: "FALSE"
- lineNotation: "NC1=NC2(CCCC2)N(OCCCOc2ccccc2)C(N)=N1"
  studyTarget: "MCF7"
  assignedLabel: "FALSE"
- lineNotation: "CC1(C)N=C(N)N=C(N)N1OCCCCOc1cccc(/C=C/C(=O)c2ccccc2)c1"
  studyTarget: "MCF7"
  assignedLabel: "TRUE"
- lineNotation: "CC1(C)N=C(N)N=C(N)N1OCCCOc1ccccc1"
  studyTarget: "MCF7"
  assignedLabel: "FALSE"
- lineNotation: "CC1(C)N=C(N)N=C(N)N1OCCOc1cccc(/C=C/C(=O)c2ccccc2)c1"
  studyTarget: "MCF7"
  assignedLabel: "FALSE"

====

target: Thioredoxin reductase 1, cytoplasmic (Rattus norvegicus); test: Inhibition of […] thioredoxin reductase after 60 mins by DTNB reduction assay; settings: read-out: IC50
Sequence (O89049 whole entry): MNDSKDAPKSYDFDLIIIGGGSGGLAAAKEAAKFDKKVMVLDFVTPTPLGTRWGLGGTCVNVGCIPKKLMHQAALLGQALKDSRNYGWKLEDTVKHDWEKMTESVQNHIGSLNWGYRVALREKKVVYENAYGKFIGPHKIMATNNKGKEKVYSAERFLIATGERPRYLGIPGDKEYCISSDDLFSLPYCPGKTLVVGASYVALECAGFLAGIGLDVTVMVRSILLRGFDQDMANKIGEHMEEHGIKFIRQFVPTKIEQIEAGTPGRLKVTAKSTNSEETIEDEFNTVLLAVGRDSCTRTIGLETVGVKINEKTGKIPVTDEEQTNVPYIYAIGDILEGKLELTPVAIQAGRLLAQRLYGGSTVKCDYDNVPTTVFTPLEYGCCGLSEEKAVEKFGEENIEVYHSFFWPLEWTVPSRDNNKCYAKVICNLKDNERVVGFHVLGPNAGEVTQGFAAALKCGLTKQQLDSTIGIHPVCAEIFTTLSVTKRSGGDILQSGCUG

- lineNotation: "CC1(C)N=C(N)N=C(N)N1OCCOc1cccc(/C=C/C(=O)c2ccccc2)c1"
  studyTarget: "Thioredoxin reductase 1, cytoplasmic (Rattus norvegicus)"
  IC50 (µM): 4
- lineNotation: "CC1(C)N=C(N)N=C(N)N1OCCOc1ccc(/C=C/C(=O)c2ccccc2)cc1"
  studyTarget: "Thioredoxin reductase 1, cytoplasmic (Rattus norvegicus)"
  IC50 (µM): 21.1
- lineNotation: "CC1(C)N=C(N)N=C(N)N1OCCCCOc1cccc(C(=O)/C=C/c2ccccc2)c1"
  studyTarget: "Thioredoxin reductase 1, cytoplasmic (Rattus norvegicus)"
  IC50 (µM): 6.7
- lineNotation: "Cl.NC1=NC2(CCCC2)N(OCCCOc2cccc(C(=O)/C=C/c3ccccc3)c2)C(N)=N1"
  studyTarget: "Thioredoxin reductase 1, cytoplasmic (Rattus norvegicus)"
  IC50 (µM): 4.6
- lineNotation: "CC1(C)N=C(N)N=C(N)N1OCCOc1cccc(C(=O)/C=C/c2ccccc2)c1"
  studyTarget: "Thioredoxin reductase 1, cytoplasmic (Rattus norvegicus)"
  IC50 (µM): 6.9
- lineNotation: "CC1(C)N=C(N)N=C(N)N1OCCOc1ccc(C(=O)/C=C/c2ccccc2)cc1"
  studyTarget: "Thioredoxin reductase 1, cytoplasmic (Rattus norvegicus)"
  IC50 (µM): 20.4
- lineNotation: "CC1(C)N=C(N)N=C(N)N1OCCCCOc1cccc(/C=C/C(=O)c2ccccc2)c1"
  studyTarget: "Thioredoxin reductase 1, cytoplasmic (Rattus norvegicus)"
  IC50 (µM): 3.8
- lineNotation: "O=C(/C=C/c1ccccc1)c1ccccc1"
  studyTarget: "Thioredoxin reductase 1, cytoplasmic (Rattus norvegicus)"
  IC50 (µM): 26.7
- lineNotation: "CC1(C)N=C(N)N=C(N)N1OCCCOc1ccc(/C=C/C(=O)c2ccccc2)cc1"
  studyTarget: "Thioredoxin reductase 1, cytoplasmic (Rattus norvegicus)"
  IC50 (µM): 25.7
- lineNotation: "CC1(C)N=C(N)N=C(N)N1OCCCOc1ccc(C(=O)/C=C/c2ccccc2)cc1"
  studyTarget: "Thioredoxin reductase 1, cytoplasmic (Rattus norvegicus)"
  IC50 (µM): 32.4
- lineNotation: "NC1=NC2(CCCC2)N(OCCOc2cccc(C(=O)/C=C/c3ccccc3)c2)C(N)=N1"
  studyTarget: "Thioredoxin reductase 1, cytoplasmic (Rattus norvegicus)"
  IC50 (µM): 4.6
- lineNotation: "CC1(C)N=C(N)N=C(N)N1OCCCCOc1ccc(C(=O)/C=C/c2ccccc2)cc1"
  studyTarget: "Thioredoxin reductase 1, cytoplasmic (Rattus norvegicus)"
  IC50 (µM): 27
- lineNotation: "Cl.NC1=NC2(CCCC2)N(OCCCCOc2cccc(C(=O)/C=C/c3ccccc3)c2)C(N)=N1"
  studyTarget: "Thioredoxin reductase 1, cytoplasmic (Rattus norvegicus)"
  IC50 (µM): 5.9
- lineNotation: "CC1(C)N=C(N)N=C(N)N1OCCCCOc1ccc(/C=C/C(=O)c2ccccc2)cc1"
  studyTarget: "Thioredoxin reductase 1, cytoplasmic (Rattus norvegicus)"
  IC50 (µM): 21.1
- lineNotation: "CC1(C)N=C(N)N=C(N)N1OCCCOc1cccc(C(=O)/C=C/c2ccccc2)c1"
  studyTarget: "Thioredoxin reductase 1, cytoplasmic (Rattus norvegicus)"
  IC50 (µM): 8.2
- lineNotation: "CC1(C)N=C(N)N=C(N)N1OCCCOc1cccc(/C=C/C(=O)c2ccccc2)c1"
  studyTarget: "Thioredoxin reductase 1, cytoplasmic (Rattus norvegicus)"
  IC50 (µM): 2.8
